Every entry's value here was drawn from patent US10815237B2.

Test system: E. coli DH10B mcr-1 transformant
assay overview: CLSI broth microdilution MIC, E. coli DH10B mcr-1 transformant
Format: cell-based
study conditions: Escherichia coli
For each of the compounds below, state its MIC.
Please reply with the bare figure in µg/mL and do not write the unit itself.

Which MIC is listed for CC(=N)NCC[C@@H]1CCC[C@@H](c2ccc(-n3cc4cc(-c5cc(CCC[C@@H](N)CO)cc(Cl)c5F)[nH]c4nc3=O)cc2F)N1 [RX-04B] ?
0.5

And C[C@H](N)CCCc1cc(OC(F)(F)F)c(F)c(-c2cc3cn(-c4ccc([C@@H]5CCC[C@@H](CCNC(=N)N)N5)cc4)c(=O)nc3[nH]2)c1 [RX-04A] ?
0.25

And C[C@H](N)CCCc1cc(Cl)c(F)c(-c2cc3cn(-c4ccc([C@@H]5CCC[C@@H](CCNC(=N)CN)N5)cc4)c(=O)nc3[nH]2)c1 ?
1

And CSc1cc(-n2cc3cc(-c4cc(CCC[C@@H](N)C5CC5)cc(Cl)c4F)[nH]c3nc2=O)ccc1[C@@H]1CCC[C@@H](CCNC(C)=N)N1 [RX-04C] ?
0.5
